# test_method_notes: yeast display, Sf9 membrane polyspecificity reagent, FACS + sequencing; frameworks hold sequencing errors
observed_property: polyreactivity (PSR sort gate)

Use these answered entries as a reference point.
The value of polyreactivity (PSR sort gate) measured for the sequence QVQLVESGGGLVQAGGSLRLSCAASGRTFGRYAMGWYRQAPGKERELVATISVSSGSTYYADSVKGRFTISRDTAKNTVYLQMNSLKPEDTAVYYCNAVYGRQYRGYNYKYYYWGQGTQVTVSS turned out to be high polyreactivity

The value of polyreactivity (PSR sort gate) measured for the sequence QVQLVESGGGLVQAGGSLRLSCAASGIIFVRNARGWSRQAPGKERELVAAITGRGVSTYYADSVKGRFTISRDNAKNTVYLQMNSLNQEDTAVYYGAARYSSRGTYPRRYDYWGQGTQVTVSS turned out to be high polyreactivity

The value of polyreactivity (PSR sort gate) measured for the sequence QVQLVESGGRLVQAGGSLRLSCAASGSTFYPYAMGWYRQAPGKERELVAAINGNGGRTYYADSVKGRFTISRDNAKNTVYLQMNSLKPEDTAVFYCAVVRVAWGHRSDYWGQGTQVTVSS turned out to be high polyreactivity

The value of polyreactivity (PSR sort gate) measured for the sequence QVQLVESGGGLVQAGGSLRLSCAASGRIFGIYAMGWYRQAPGKERELVASITDGTITNYADSVKGRFTISRDNAKNTVYLQMNSLKPVDTAVYYCAAGTQAHAYVVRPIEMDYWGQGTQVTVSS turned out to be low polyreactivity

The value of polyreactivity (PSR sort gate) measured for the sequence QVQLVESGGCLVQSGGSLRLSCAASGIIISSYAMGWYRQAPGKERELVADIRSGGSTNYADSVKGRFTISRDNAKNTVYLQMNSLKPEDTAVSDCNADTFQWWDSAAVYVIVKYGYWGHGTQVTVSS turned out to be low polyreactivity

---
The value of polyreactivity (PSR sort gate) measured for the sequence QVQLVESGGGLVQAGGSLRLSCAASGRTFAAYAMGWYIQSPGKERELVAAISSTSGNTYYADSVKGRFTISRDNAKNTVYLQMNSLKPEDTAVYYCNAQRRFNANYWYDYWGQGTQVTVSS turned out to be high polyreactivity

The value of polyreactivity (PSR sort gate) measured for the sequence QVQLVESGGGLVQAGGSLRLSCAASGRIFYIYTMGWYRPAPGKEREFVAGINWNGGSTYYADSVKGRFTISRDNAKNTVYLQMNSLKPEDTAVYYCNADQYWDRYYYWGQGTQVTVSS turned out to be low polyreactivity

====

# test_method_notes: yeast display, Sf9 membrane polyspecificity reagent, FACS + sequencing; frameworks hold sequencing errors
observed_property: polyreactivity (PSR sort gate)

The value of polyreactivity (PSR sort gate) measured for the sequence QVQLVESVGGLLQAGGRLRLSCAASGSTFGKYVMGWYRPAPGTERELVAAISLSGGSTYYADSVKGRFTISRDNAKNTVYLQMNCRKPEDTALNYCATVGYGYDYWGQATQVTVSS turned out to be high polyreactivity

The value of polyreactivity (PSR sort gate) measured for the sequence QVQLVESGGGLVQAGGSLRLSCAASGSTFAYNAMGWYRQAPGKERELVAAIRISGGTTYYADSVKGRFTISRDNAKNTVYLQMNSLKREDTAVYYCAAGTAGTTGSPKFSGYGYDYWGQGTQVTVSS turned out to be low polyreactivity

The value of polyreactivity (PSR sort gate) measured for the sequence QVQLVESGGGLVQAGGSLRLSCAASGRIFKYNAMGWYRQAPGKERELVAAISGRGVSTYYADSVKGRFTISRDNAKNTVYLQMNSLKPEDTAVYYCAAETVHGSADFDYWGQGTKVTVSS turned out to be low polyreactivity

The value of polyreactivity (PSR sort gate) measured for the sequence QVQLVESGGGLVQAGGSLRLSCAASGLILDGYAMGWYRQAPGKERELVAAITRSGGRTYYADSVKGRFTISRDNAKNTVYLQMKSLKPEDPAVYYCAALGWSGRYRYDYWGQGTQVTVSS turned out to be high polyreactivity

====

# test_method_notes: yeast display, Sf9 membrane polyspecificity reagent, FACS + sequencing; frameworks hold sequencing errors
observed_property: polyreactivity (PSR sort gate)

The value of polyreactivity (PSR sort gate) measured for the sequence QVQLLESGGGLVQAGGSLRLSCAASGRTLVGYAMGWYRQAPGTERELVAAITGSGGRTYYADSVKGRFTISRDNAKNTVYLQMNSLKPEDTAVYYCNKVYRVSSGAYLYDYWGQGTQVTVSS turned out to be high polyreactivity

The value of polyreactivity (PSR sort gate) measured for the sequence QVQLVESGGGLVQAGGSLRLTCAASGSIFTGYTMGWYRQAPGKERELVASISRRGGRTYYADSVKGRFTISRDNAKNTVYLQMNSLKPEDTAVYYCAVDRVPWRYQDSYNYWGQGTQVTVSS turned out to be high polyreactivity

The value of polyreactivity (PSR sort gate) measured for the sequence QVQLVESGGGLVQAGGSLRLSCAASGRIFYTNAMGWYRQAPGKERELVATISGSGGNTYYADSVKGRFTISRDNAKNTVYLQMNSLKPEDTAVYYCAKAYYTPYGVYVLHYYWGQGTQVTVSS turned out to be high polyreactivity

====

# test_method_notes: yeast display, Sf9 membrane polyspecificity reagent, FACS + sequencing; frameworks hold sequencing errors
observed_property: polyreactivity (PSR sort gate)

The value of polyreactivity (PSR sort gate) measured for the sequence QVQLVESGGGLVQAGGSLRLSCAASGRTFTWNAMGWYRQAPGKERELVADITNNGGSTYYADSVKGRFTISRDNATNTVYLQMNSLKPEDTAVYYCDNRRNYWFSFDYWGQGTQVTVSS turned out to be low polyreactivity

The value of polyreactivity (PSR sort gate) measured for the sequence QDQLVESGGGLVQAGGSLRLSCAASGFIFADYAMGWYRQATGKERELVAAISWGGGSTYYADSVKGRFTISRDIAKNTVYLQMNSLKPEDTAVYYCAAANPGSEYDYWGQGTQVTVSS turned out to be high polyreactivity

The value of polyreactivity (PSR sort gate) measured for the sequence QVQLVESGGGLVQAGGSLRLSCAASGRTFFLNTMGWYRQAPGKERELGAAINWSDGGTYYADSVKGRFTISRDIAKNTVYLQMNSLKPEDTAVYYCAADVYWYYGAPELWYRFDYWGQGTQVTVSS turned out to be low polyreactivity

The value of polyreactivity (PSR sort gate) measured for the sequence QVQLVESGGGLVQAGGSLRLSCAASGGTFGTNTMGWYRQAPGKERELVAAISKRGGRTYYADSVKGRFTISRDNAKNTVYLQMNSLKPEDTAVYYCAADTGGNPKYDYWGQGTQVTVSS turned out to be high polyreactivity

====

# test_method_notes: yeast display, Sf9 membrane polyspecificity reagent, FACS + sequencing; frameworks hold sequencing errors
observed_property: polyreactivity (PSR sort gate)

The value of polyreactivity (PSR sort gate) measured for the sequence QVQLVESGGGLVQAGGSLRLSCAASGFIFKWNAMGWYRPAPGKERELVAAISWHGGSTNYADSVKGRFTISRDNAKNTVYLQMNSLKQEDTAVYYCAKQQSPYYPSTLDYWGQGTQVTVSS turned out to be high polyreactivity

The value of polyreactivity (PSR sort gate) measured for the sequence QVQLVESGGGLVQAGGSLRLSCAASGSIFTNNAMGWYRHAPGKERELVAAISRGGSTYYADSVKGRFTISRDIAKNTDFIQMNSLIPEDTAVYYCNARRYRHDGYWGQGTQVTVSS turned out to be high polyreactivity

The value of polyreactivity (PSR sort gate) measured for the sequence QVQLVESGRGLVQAGGSLRLSCAASGRIFTKNTMGWYRQAPGKERELVAAIRSRAGSTYYADSVKGRFTISRDNAKNTVYLQMNSLKPEDTAVYYCAVPWFRSVDFDYWGQGTQVTVSS turned out to be low polyreactivity

The value of polyreactivity (PSR sort gate) measured for the sequence QVQLVESGGGLVQAGGSLRLSCAASGSIFSINTMGWYRQPPGKERELVAAITRSGSGTYYADSVKGRFTISRDNAKNTVYLQMNSLKPEDTAVYYCAKPAGARLGYWGQGTQVTVSS turned out to be low polyreactivity

====

# test_method_notes: yeast display, Sf9 membrane polyspecificity reagent, FACS + sequencing; frameworks hold sequencing errors
observed_property: polyreactivity (PSR sort gate)

The value of polyreactivity (PSR sort gate) measured for the sequence QVQLVESGGGLVQAGGSLRLSCAASGFTFDRYAMGWYRQAPGKERELVAAISRSGGSTHYADSVKGRFTISRDNAKNTVYLQMNSLKPEDTAVYYCNKRWYYDGYDYWGQGTQVTVSS turned out to be high polyreactivity

The value of polyreactivity (PSR sort gate) measured for the sequence QVQLVESGGGLVQAGGSLRLSCAASGIFSRYAMGWYRQAPGKERELVAAISSGGSTYYADSVKGRFTISRDNAKNTVYLQMNSLKAEDTAVYYCAVKQRDKFAGGRNDYWGQGTQVTVSS turned out to be high polyreactivity
